tested system: T1, postfusion RSV F ectodomain, subtype B (respiratory syncytial virus subtype B)
T1 construct: extracellular domain; also called Postfusion subtype B
T1 sequence (P13843 26-109, chain 1 of 2): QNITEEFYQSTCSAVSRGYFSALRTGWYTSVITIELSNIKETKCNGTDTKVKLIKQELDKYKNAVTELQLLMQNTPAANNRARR
T1 sequence (P13843 147-513, chain 2 of 2): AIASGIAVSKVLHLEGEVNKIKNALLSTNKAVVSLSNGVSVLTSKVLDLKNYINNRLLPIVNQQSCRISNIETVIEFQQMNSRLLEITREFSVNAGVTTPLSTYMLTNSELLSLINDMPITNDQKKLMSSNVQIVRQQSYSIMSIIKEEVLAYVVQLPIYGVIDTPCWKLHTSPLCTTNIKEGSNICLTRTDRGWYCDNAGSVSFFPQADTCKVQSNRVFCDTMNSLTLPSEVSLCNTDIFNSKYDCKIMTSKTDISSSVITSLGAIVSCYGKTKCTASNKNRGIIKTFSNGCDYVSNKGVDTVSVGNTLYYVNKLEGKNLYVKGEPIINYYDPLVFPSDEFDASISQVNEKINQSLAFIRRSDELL
assay protocol: BLI, IgG on sensor
pKd: −log10 of the molar value.
Tick YES if pKd is 9 or greater. Tick NO if pKd is less than 9.

binder: ADI-15619 (antibody, V domains shown, IgG) VH: QVQLVQSGAEAKKPGASVKVSCTASGYTFTNDINWVRQATGQGLEWMGWMNPNNGHTGYGQKFEDRVTLTRDSSRSTAYMELSSLRFEDTAVYYCVYNFWSDSSVSWGRGTLVTVSS VL: QSVVTQPPSVSGAPGQSVAISCTGSSSNIGPAYDVHWYQQTPGAAPKLLIYGDSNRPSGVPDRFSTSKSGTSASLAITGLQAEDEADYYCQSFDSSLRGYVFGTGTKVTVL
label class: NO
--
binder: ADI-15582 (antibody, V domains shown, IgG) VH: QVQLVQSGGEVKKPGASVKVSCKASGYTFISYGITWVRQAPGQGPEWMGWISPYNGDTNYAQKLQGRVTMTTDTSTTTAYMELRSLRSDDTAIYYCARRYDILTGGGWFDSWGQGTLVTVSS VL: DIVMTQSPSSLSASVGDRVTINCRASQSIISYLNWYQQKPGKAPELLIYAASSLQSGVPSRFSGSGSGTEFTLTISSLQPEDFATYYCQQSYSTPLSFGPGTKVEIK
label class: YES
--
binder: ADI-15606 (antibody, V domains shown, IgG) VH: EVQLLESGGGLVQPGGSLRLSCAASGFTFRRYAMTWVRQAPGKGLEWVAAITATGDTTYYPDSVKGRFAVSRDNSRNTLYLQMDSLRAEDTALYYCAKSWDDYGDLDWYFALWGRGTLVTVSS VL: DIVMTQSPAILSVSPGERATLSCRASQSVSSSLAWYQQKPGQAPRLLIYGASTRATGIPPRFSGSGSGTQFTLTISSLQSEDFAVYYCQQYSDWPPLTFGGGTKVEIK
label class: NO
--
binder: ADI-15556 (antibody, V domains shown, IgG) VH: QVQLVQSGAEVKKPGSSVKVSCKASGGNVNIYGISWVRQAPGQGLEWMGGIIPIYDTTKYAQKFQDRVTITADKSTSTAYMELSSLRSEDTAVYFCARDLDYDILTGYSVNYYYYGMDVWGQGTTVTVSS VL: QSVLTQPPSVSGAPGQRVTISCTGSSSNIGAGYDVHWYQQLPGTAPKLLIYGNINRPSGVPDRFSGSKSGTSASLAITGLQAEDEADYYCQSCDSSLSGWVFGGGTKLTIL
label class: YES

Next:
Task: Determine whether this binder has pKd no lower than 9: ADI-15612 (antibody, V domains shown, IgG) VH: EVQLLESGGDLVQPGGSLRLSCAASGFPFSSHSMNWVRQAPGKGLEWISYISGGSDTIQYADSVKGRFTISRDNVKNSLYLQMNSLRAEDTAVYYCARDQYIWNYVEPLDYWGQGTLVTVSS VL: DIQMTQSPSSLSASVGDRVTITCRASQDISYYLGWYQQKAGKAPKLLIYAVSNLQTGVPSRFSGSGSGTDFTLTISSLQPEDFATYYCLQDHTCPWTFGQGTKVEIK
Result: YES
